Hey, just so you know, these numbers are from PubChem BioAssay AID1745844.

system: rodent lifetime carcinogenesis bioassay, tumor incidence TD50; experiment: carcinogenic potency in animals, long-term in vivo studies, CPDB compilation (AID 1745844); conditions: rat; strain Fischer 344; females; by gavage; site: all sites; lesion: hemangiosarcoma; dosed 102 weeks; study length 104 weeks
reportedMetric: TD50 (mg/kg/day)
State the answer as a number, implicitly in mg/kg/day.

Need TD50, item C=C1C/C(=C/C)C(=O)O[C@@H]2CCN3CC=C(COC(=O)[C@@]1(O)CO)[C@H]23 0.446

* * *

test system: rodent lifetime carcinogenesis bioassay, tumor incidence TD50; test: carcinogenic potency in animals, long-term in vivo studies, CPDB compilation (AID 1745844); settings: mouse; strain Swiss; males; in drinking water; site: lung; lesion: several types; types named in the paper; dosed 113 weeks; study length 113 weeks
reportedMetric: TD50

What value of TD50 on rodent lifetime carcinogenesis bioassay, tumor incidence TD50 does NN have? 2.2 mg/kg/day

* * *

system: rodent lifetime carcinogenesis bioassay, tumor incidence TD50; test: carcinogenic potency in animals, long-term in vivo studies, CPDB compilation (AID 1745844); details: mouse; strain Swiss; females; inhaled; site: any site (literature study); lesion: malignant tumor; dosed 78 weeks; study length 104 weeks
Calls of active or inactive are those of the source. No rule for the calls is given here.
// TD50 lookup, one value per entry

FC(F)(Cl)Cl 3320 mg/kg/day (inactive)

Let's switch to this compound now.
What TD50 value was documented for this compound, C=CC ? 20100 mg/kg/day (inactive)

* * *

system: rodent lifetime carcinogenesis bioassay, tumor incidence TD50; assay: carcinogenic potency in animals, long-term in vivo studies, CPDB compilation (AID 1745844); conditions: mouse; strain Swiss albino; females; by gavage; site: any site (literature study); lesion: malignant tumor; dosed 95 weeks; study length 95 weeks
reportedMetric: TD50 (mg/kg/day)
Answer format: numeric, mg/kg/day implied, no suffix.

What value of TD50 has been reported for the following compound? C[C@H]([C@H](O)CCC(C)(C)O)[C@H]1CC[C@@]2(O)C3=CC(=O)[C@@H]4C[C@@H](O)[C@@H](O)C[C@]4(C)[C@H]3CC[C@]12C 0.0264

* * *

tested on: rodent lifetime carcinogenesis bioassay, tumor incidence TD50; assay: carcinogenic potency in animals, long-term in vivo studies, CPDB compilation (AID 1745844); conditions: mouse; strain B6C3F1; females; inhaled; site: lung; lesion: several types; types named in the paper; dosed 104 weeks; study length 104 weeks
reportedMetric: TD50

Would you kindly share the measured TD50 for ClCCl ? 1650 mg/kg/day

* * *

test system: rodent lifetime carcinogenesis bioassay, tumor incidence TD50; experiment: carcinogenic potency in animals, long-term in vivo studies, CPDB compilation (AID 1745844); conditions: mouse; strain Charles River CD1; females; in feed; site: small intestine; lesion: carcinoma; dosed 113 weeks; study length 113 weeks
reportedMetric: TD50

Find the recorded TD50 belonging to O=C1C2CC=CCC2C(=O)N1SC(Cl)(Cl)Cl (stereo unspecified) and report it. 2110 mg/kg/day

* * *

system: rodent lifetime carcinogenesis bioassay, tumor incidence TD50; assay: carcinogenic potency in animals, long-term in vivo studies, CPDB compilation (AID 1745844); details: rat; strain Sprague-Dawley; males; i.p.; site: any site (literature study); lesion: several types; types named in the paper; dosed 34 weeks; study length 80 weeks
reportedMetric: TD50 (mg/kg/day)
Give the quantity in mg/kg/day, number only.

Would you mind telling me what TD50 value was observed for Nc1ncn([C@@H]2O[C@H](CO)[C@@H](O)[C@H]2O)c(=O)n1 ? 0.328
